- Test system: Candida albicans
- PROCEDURE_SUMMARY: in vivo evaluation in mice inoculated with Candida albicans (protection against lethal infection, PD50)
- Set-up: unit not given beside the values
- EXPERIMENTAL_SETUP: oral, dose level giving 50% protection against the lethal effect of the infection
Could you mark each record Condition met if its PD50 falls strictly under 0.2, and Condition not met if it equals or exceeds it?

# COMPOUND, TARGET_DESC, ASSIGNED_CATEGORY
measured = [
    ("Fc1cc(C(Cl)(Cn2cncn2)Cn2cncn2)c(F)cc1Br [Product of Example 5]", "Candida albicans", "Condition not met"),
]

input: Below 0.2 on PD50? Entry Clc1ccc(C(Br)(Cn2cncn2)Cn2cncn2)c(Cl)c1 [Product of Example 2]
output: Condition met

input: Below 0.2 on PD50? Entry Clc1ccc(C(Cl)(Cn2cncn2)Cn2cncn2)c(Cl)c1 [Product of Example 1]
output: Condition met

input: Below 0.2 on PD50? Entry FC(Cn1cncn1)(Cn1cncn1)c1ccc(Cl)cc1Cl [Product of Example 4]
output: Condition not met

input: Below 0.2 on PD50? Entry Fc1ccc(C(Cl)(Cn2cncn2)Cn2cncn2)c(F)c1 [Product of Example 6]
output: Condition not met

input: Below 0.2 on PD50? Entry Clc1ccc(C(Cl)(Cn2cncn2)Cn2cncn2)cc1 [Product of Example 8]
output: Condition not met

input: Below 0.2 on PD50? Entry Fc1ccc(C(Br)(Cn2cncn2)Cn2cncn2)c(F)c1 [Product of Example 3]
output: Condition not met
